Hey, just so you know, these numbers are from the MegaScale stability set (Tsuboyama et al. 2023).

Provide the reported folding stability dG of each item.
B1: EEHEE_rd4_0763 (parent)
chain: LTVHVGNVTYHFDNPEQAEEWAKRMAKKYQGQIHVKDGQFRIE

Variants of: B1
Assay: folding stability dG (cDNA display proteolysis); higher = more stable
Conditions: PBS, room temperature
Answer shape: numeric part, then the unit.

[Q] Given Y29W , state its recorded folding stability dG.
[A] 6.73 kJ/mol

[Q] And K23F ?
[A] 6.76 kJ/mol

[Q] Same thing, different variant: Q30P
[A] 4.97 kJ/mol

[Q] Input I33E
[A] 3.08 kJ/mol

[Q] Follow-up entry: P15T
[A] 6.6 kJ/mol

[Q] What do you have for G31R ?
[A] 4.49 kJ/mol

[Q] Input F40T
[A] 5.01 kJ/mol

[Q] A18V ?
[A] 4.17 kJ/mol

[Q] And what about the variant V8A ?
[A] 6.62 kJ/mol

[Q] # iterate: A26Q
[A] 4.05 kJ/mol

[Q] Would you kindly repeat that for Q39C ?
[A] 12.2 kJ/mol

[Q] Please answer likewise for A18E
[A] 1.54 kJ/mol

[Q] I33D ?
[A] 3.67 kJ/mol

[Q] Further, for I33G ?
[A] 3.43 kJ/mol

[Q] Same read-out for D37P ?
[A] 1.29 kJ/mol

[Q] Continue with V5K
[A] 2.22 kJ/mol

[Q] Next: D13G
[A] 5.74 kJ/mol

[Q] Then this variant: V5T
[A] 2.44 kJ/mol

[Q] Now this one: K36N
[A] 6.23 kJ/mol

[Q] Try the variant E19A
[A] 7.17 kJ/mol
